- Tested on: Rhizoctonia solani (RHIZSO)
- assay-method-text: microbe, parasite or virus in culture
- Type: cell-based
- experimental-parameters: Rhizoctonia solani, read-out: RHIZSO in vitro Growth Inhibition
endpoint-label: inhibition at 25 ppm

Worked examples, 5 molecules total:
>>> print(df.to_string())
                                   molecule        endpoint_label  reported_value
0  CC(C)C(=O)O[C@H]1[C@H](C)OC(=O)[C@@H](NC(=O)c2cncnc2O)COC(=O)[C@@H]1Cc1ccccc1  inhibition at 25 ppm           < 80%
1  COc1ccnc(C(=O)Nc2ccc(Oc3ccc(C(F)(F)F)cc3)cc2)c1OS(C)(=O)=O  inhibition at 25 ppm           < 80%
2  COc1ccnc(C(=O)N[C@H]2COC(=O)[C@H](Cc3ccccc3)[C@@H](OC(=O)/C=C(\C)CCC=C(C)C)[C@H](C)OC2=O)c1O  inhibition at 25 ppm           < 80%
3  COc1ccnc(C(=O)NCCCCCCCCCCC(=O)Oc2cccc(NC(C)=O)c2)c1O  inhibition at 25 ppm           < 80%
4  COc1ccnc(C(=O)N[C@H]2CO[C@H](C(C)Cc3ccc(C(C)(C)C)cc3)OC2)c1OC(C)=O (stereo partly drawn)  inhibition at 25 ppm           > 80%

# inhibition at 25 ppm of CC(C)C(=O)O[C@H]1[C@H](C)OC(=O)[C@@H](NC(=O)c2cn(C)nc2O)COC(=O)[C@@H]1Cc1ccccc1 = < 80%

Lab note: COC(=O)C(COC(=O)C(C)c1ccccc1)NC(=O)c1nccc(OC)c1O (stereo not drawn) gave inhibition at 25 ppm of < 80%

Please fill in: inhibition at 25 ppm reported for COCc1cc(Oc2ccc(C(F)(F)F)cc2)ccc1NC(=O)c1nccc(OC)c1O = > 80%

Query C[C@H](NC(=O)c1ncccc1O)c1cccc2ccccc12 yields inhibition at 25 ppm of < 80%

Field inhibition at 25 ppm (entry COc1ccnc(C(=O)NC2CC(C)(C)CC(C)(COCC(Cl)CCl)C2)c1O (stereo not drawn) ) reads < 80%

// recorded inhibition at 25 ppm for CCCCCCCCCCCCCCCCCC(=O)O[C@H]1[C@H](C)OC(=O)[C@@H](NC(=O)c2nccc(OC)c2O)COC(=O)[C@@H]1Cc1ccccc1 : < 80%

Consider COc1ccnc(C(=O)NC2CC(C)(C)/C=C\CC(C)(C)C2)c1OC(C)=O (stereo not drawn) . Its measured inhibition at 25 ppm is < 80%
